Parameter: pIC50. Scope: all listed entries.
Molecular target: TIE-2 (Homo sapiens, UniProt Q02763)
Sequence (Q02763 23-1124): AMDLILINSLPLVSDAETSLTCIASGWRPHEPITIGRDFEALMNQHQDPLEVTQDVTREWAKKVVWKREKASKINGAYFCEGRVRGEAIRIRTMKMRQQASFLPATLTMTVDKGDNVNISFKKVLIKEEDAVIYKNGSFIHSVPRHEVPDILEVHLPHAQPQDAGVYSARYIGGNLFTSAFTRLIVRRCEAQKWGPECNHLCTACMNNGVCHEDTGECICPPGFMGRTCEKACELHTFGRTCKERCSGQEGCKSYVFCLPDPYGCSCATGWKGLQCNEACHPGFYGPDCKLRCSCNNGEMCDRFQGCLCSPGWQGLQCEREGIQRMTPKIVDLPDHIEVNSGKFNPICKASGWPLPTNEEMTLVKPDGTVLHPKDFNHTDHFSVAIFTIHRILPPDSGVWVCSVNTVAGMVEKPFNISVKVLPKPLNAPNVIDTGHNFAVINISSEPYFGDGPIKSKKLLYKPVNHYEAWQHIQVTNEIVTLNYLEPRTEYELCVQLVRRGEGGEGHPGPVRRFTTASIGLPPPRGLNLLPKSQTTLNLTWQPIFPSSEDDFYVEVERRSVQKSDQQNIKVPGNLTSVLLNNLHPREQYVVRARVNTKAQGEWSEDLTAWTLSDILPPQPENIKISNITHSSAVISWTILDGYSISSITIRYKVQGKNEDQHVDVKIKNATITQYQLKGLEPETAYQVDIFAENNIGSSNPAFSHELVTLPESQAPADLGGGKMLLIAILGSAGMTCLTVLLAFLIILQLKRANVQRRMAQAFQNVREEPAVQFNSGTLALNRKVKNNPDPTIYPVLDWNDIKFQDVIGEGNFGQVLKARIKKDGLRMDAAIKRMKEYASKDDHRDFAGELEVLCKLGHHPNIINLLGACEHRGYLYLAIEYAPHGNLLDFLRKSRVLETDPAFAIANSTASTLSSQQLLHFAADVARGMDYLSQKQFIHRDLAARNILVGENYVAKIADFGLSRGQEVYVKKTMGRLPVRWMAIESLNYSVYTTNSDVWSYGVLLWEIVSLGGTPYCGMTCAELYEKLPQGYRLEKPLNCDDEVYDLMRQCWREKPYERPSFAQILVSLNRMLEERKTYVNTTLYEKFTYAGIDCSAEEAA
Assay: Vanadate-induced TIE-2 receptor phosphorylation in CHO cells
Assay type: cell-based
Set-up: host or cells: Chinese hamster ovary (CHO) cells
Conditions: Chinese hamster ovary (CHO) cells; read-out: IC50, vanadate-induced inhibition of TIE-2 receptor phosphorylation
Kindly note that pIC50 refers to -log10 of the concentration in mol/L and answer with the value alone.

[
  {
    "SMILES ENTRY": "CNC(=O)c1cc(Oc2ccc(NC(=O)Nc3cc(C(F)(F)F)ccc3-n3cncn3)cc2)ccn1",
    "pIC50": 7.57
  },
  {
    "SMILES ENTRY": "CNC(=O)c1cc(Oc2ccc(NC(=O)Nc3cc(C)c(Cl)cc3-n3cccc3)cc2)ccn1",
    "pIC50": 6.90
  }
]

Form field pIC50, entry O=C(Nc1ccc(Oc2ccncc2)cc1)Nc1cc(C(F)(F)F)ccc1-n1cncn1 : 7.44

* * *

System: dengue virus (DNV) serotype 2 D2Y98P
Test: microbe, parasite or virus in culture
Assay type: cell-based, dengue virus serotype 2
Details: Dengue virus, Vero, read-out: IC50 against dengue virus type 2
Parameter: pIC50. Scope: all listed entries.
Kindly note that pIC50 refers to -log10 of the concentration in mol/L and answer with the value alone.

[
  {
    "SMILES ENTRY": "CNC(=O)c1cc(Oc2ccc(NC(=O)Nc3cc(C(F)(F)F)ccc3-n3cncn3)cc2)ccn1",
    "pIC50": 5.07
  }
]

API: the following record is the query input.
# pIC50 measured on dengue virus (DNV) serotype 2 D2Y98P for item CNC(=O)c1cc(Oc2ccc(NC(=O)Nc3cc(C)c(Cl)cc3-n3cccc3)cc2)ccn1 = 8.00

* * *

Molecular target: CDK8 (Homo sapiens)
Sequence (P49336 whole entry): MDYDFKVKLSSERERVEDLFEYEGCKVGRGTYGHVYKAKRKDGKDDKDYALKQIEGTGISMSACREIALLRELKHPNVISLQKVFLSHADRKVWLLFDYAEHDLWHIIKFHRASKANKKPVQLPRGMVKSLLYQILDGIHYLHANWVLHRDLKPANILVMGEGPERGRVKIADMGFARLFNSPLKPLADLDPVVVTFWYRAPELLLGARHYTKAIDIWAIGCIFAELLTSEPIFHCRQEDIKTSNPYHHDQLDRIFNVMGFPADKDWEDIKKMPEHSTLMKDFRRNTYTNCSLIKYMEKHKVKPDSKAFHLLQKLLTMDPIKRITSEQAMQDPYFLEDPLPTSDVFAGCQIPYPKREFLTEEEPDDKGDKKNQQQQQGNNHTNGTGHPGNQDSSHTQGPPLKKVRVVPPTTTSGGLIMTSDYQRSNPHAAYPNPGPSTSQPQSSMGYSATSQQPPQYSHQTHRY
Sequence (P24863 whole entry partner): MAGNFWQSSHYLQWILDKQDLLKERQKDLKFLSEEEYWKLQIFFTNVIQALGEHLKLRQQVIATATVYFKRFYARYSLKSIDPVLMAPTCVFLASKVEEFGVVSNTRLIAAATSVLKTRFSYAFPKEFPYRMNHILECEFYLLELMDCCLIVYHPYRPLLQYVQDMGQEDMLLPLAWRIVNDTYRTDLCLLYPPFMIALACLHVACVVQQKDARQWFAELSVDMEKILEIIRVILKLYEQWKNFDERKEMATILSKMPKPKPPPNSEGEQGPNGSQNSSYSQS
QUANTITY MEASURED: IC50 (µM)
Report as a plain number; the unit µM is understood.

# IC50 measured on CDK8 (Homo sapiens) for item CNC(=O)c1cc(Oc2ccc(NC(=O)Nc3cc(C)c(Cl)cc3-n3cccc3)cc2)ccn1 = 0.031

* * *

System: dengue virus (DNV) serotype 2 D2Y98P
Assay: microbe, parasite or virus in culture
Type: cell-based, dengue virus serotype 2
Conditions: read-out: IC50 against dengue virus type 2
Parameter: pIC50. Scope: all listed entries.
Kindly note that pIC50 refers to -log10 of the concentration in mol/L and answer with the value alone.

[
  {
    "SMILES ENTRY": "CNC(=O)c1cc(Oc2ccc(NC(=O)Nc3cc(C)c(Cl)cc3-n3cccc3)cc2)ccn1",
    "TARGET DESC": "dengue virus (DNV) serotype 2 D2Y98P",
    "pIC50": 7.92
  }
]

API: the following record is the query input.
Form field pIC50, entry CNC(=O)c1cc(Oc2ccc(NC(=O)Nc3cc(C(F)(F)F)ccc3-n3cncn3)cc2)ccn1 : 5.07

* * *

Target: MAPK11 (Homo sapiens, UniProt Q15759)
Sequence (Q15759 whole entry): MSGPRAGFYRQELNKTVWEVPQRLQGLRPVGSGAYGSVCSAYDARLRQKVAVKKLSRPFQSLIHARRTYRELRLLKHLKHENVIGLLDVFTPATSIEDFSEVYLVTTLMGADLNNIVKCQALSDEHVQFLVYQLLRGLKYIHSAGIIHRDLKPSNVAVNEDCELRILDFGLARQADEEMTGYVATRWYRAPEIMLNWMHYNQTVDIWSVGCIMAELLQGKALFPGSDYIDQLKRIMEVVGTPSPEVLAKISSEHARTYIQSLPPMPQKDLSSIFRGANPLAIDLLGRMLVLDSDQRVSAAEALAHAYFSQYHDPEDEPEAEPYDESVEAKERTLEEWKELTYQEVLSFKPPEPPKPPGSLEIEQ
QUANTITY MEASURED: pIC50
Kindly note that pIC50 refers to -log10 of the concentration in mol/L and answer with the value alone.

Form field pIC50, entry CNC(=O)c1cc(Oc2ccc(NC(=O)Nc3cc(C)c(Cl)cc3-n3cccc3)cc2)ccn1 : 6.37

* * *

Molecular target: MAPK14 (Homo sapiens, UniProt Q16539)
Sequence (Q16539 whole entry): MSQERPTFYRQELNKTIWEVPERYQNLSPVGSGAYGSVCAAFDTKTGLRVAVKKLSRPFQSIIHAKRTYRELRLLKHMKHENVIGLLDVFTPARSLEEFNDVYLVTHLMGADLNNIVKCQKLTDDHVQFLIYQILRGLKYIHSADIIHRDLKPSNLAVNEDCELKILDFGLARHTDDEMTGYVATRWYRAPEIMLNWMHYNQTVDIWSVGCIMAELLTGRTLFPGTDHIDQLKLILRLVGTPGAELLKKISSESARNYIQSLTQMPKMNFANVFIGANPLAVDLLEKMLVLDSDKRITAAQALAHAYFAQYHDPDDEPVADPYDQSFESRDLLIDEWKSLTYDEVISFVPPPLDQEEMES
QUANTITY MEASURED: IC50
Answer as a quantity: numeral, then unit.

Form field IC50, entry CNC(=O)c1cc(Oc2ccc(NC(=O)Nc3cc(C)c(Cl)cc3-n3cccc3)cc2)ccn1 [Compound 4] : 87 nM

* * *

Tested on: SARS-CoV-2
Experiment: microbe, parasite or virus in culture
Assay type: cell-based
Conditions: Severe acute respiratory syndrome coronavirus 2; HeLa-ACE2 cells, 24 h, immunofluorescence of infected cells; read-out: IC50 against SARS-CoV-2
QUANTITY MEASURED: IC50 (nM)
Report as a plain number; the unit nM is understood.

Form field IC50, entry CNC(=O)c1cc(Oc2ccc(NC(=O)Nc3cc(C)c(Cl)cc3-n3cccc3)cc2)ccn1 : 500

The measured values listed here are drawn from paper PMC11945542.
